meta.source: patent EP1781294B1

Experiment: Pharmacokinetics of DPB after oral DPB or NaDPB and intravenous NaDPB
Assay type: in vivo, Sprague-Dawley rats
Conditions: rat, in vivo, iv, 150 mg/kg, IV infusion, analyte DPB, male, read-out: AU0-24
endpointName: AUC at 24 h (µg·h/mL)
Value expressed in µg·h/mL; do not type the unit.

Item O=C1NC(=O)C(c2ccccc2)(c2ccccc2)C(=O)N1.[Na] [NaDPB, sodium 5,5-diphenyl barbiturate] has what recorded AUC at 24 h?
3160

---

Assay: in vivo
Format: in vivo, Beagle dogs
Conditions: dog, in vivo; Oral, 30 mg/kg, analyte DPB
endpointName: Tmax (h)
Value expressed in h; do not type the unit.

Item COCN1C(=O)NC(=O)C(c2ccccc2)(c2ccccc2)C1=O has what recorded Tmax?
9.39
